Reference source for all entries: patent US20240109881A1

- TARGET OR SYSTEM: IRAK4 (Homo sapiens, UniProt Q9NWZ3)
- Construct: endogenous in cells; host or cells: THP-1 cells
- Sequence (Q9NWZ3 1-460): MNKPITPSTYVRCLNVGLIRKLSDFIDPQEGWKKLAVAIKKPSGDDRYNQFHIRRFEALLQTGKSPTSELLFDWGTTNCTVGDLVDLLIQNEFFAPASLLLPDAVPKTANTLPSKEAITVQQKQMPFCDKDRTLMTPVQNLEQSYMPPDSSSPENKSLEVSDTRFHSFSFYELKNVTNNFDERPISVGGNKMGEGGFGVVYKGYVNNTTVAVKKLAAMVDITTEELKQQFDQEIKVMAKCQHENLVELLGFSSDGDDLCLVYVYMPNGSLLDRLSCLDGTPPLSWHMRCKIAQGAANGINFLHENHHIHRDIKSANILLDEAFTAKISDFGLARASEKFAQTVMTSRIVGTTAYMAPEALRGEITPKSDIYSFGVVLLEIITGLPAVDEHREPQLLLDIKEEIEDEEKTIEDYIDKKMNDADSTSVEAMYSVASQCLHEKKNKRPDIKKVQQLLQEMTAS
- PROTOCOL: ALE THP1 HTRF (Advanced Lipoxidation End Product THP1 Homogeneous Time Resolved Fluorescence)
- Format: cell-based
- RUN CONDITIONS: THP1 cells
- Procedure: For Homogenous Time Resolved Fluorescence (HTRF) assays, a Cisbio HTRF kit was used, which included: Lysis Buffer #1 4×, Blocking Reagent #3 100×, 20× Antibody 1 (Anti-IRAK4 d2), 20× Antibody 2 (Anti-IRAK4 k), and Detection Buffer. 4× Lysis Buffer was stored at 4° C. […] Cells were lysed at room temperature for 45 min with shaking. […] The samples were analyzed by a plate reader (Envision, PerkinElmer) using the Desnor 384 HTRF program.
READOUT KIND: ALE THP1 HTRF YMIN

C[C@@H]1CN(c2ccc3c(c2)C(=O)N(C2CCC(=O)NC2=O)C3=O)C[C@H](C)N1C(=O)C1CCC(NC(=O)c2cnc(-n3ncc4cc(C#N)cnc43)cc2NC2CCCC2)CC1 (some centres unmarked) | 43.4%
C[C@H](C#N)Nc1cc(-n2ncc3cc(C#N)c(N)nc32)ncc1C(=O)N[C@H]1CC[C@H](CCN2CCN(c3ccc(C4CCC(=O)NC4=O)cc3F)[C@H](C)C2)CC1 (some centres unmarked) | 5.4%
O=C1CCC(c2ccc(N3CCN(CC[C@H]4CC[C@H](NC(=O)c5cnc(Nc6ccc7[nH]c(=O)sc7c6)cc5NC5CC5)CC4)CC3)cc2)C(=O)N1 (some centres unmarked) | 6.1%
N#Cc1cnc2c(cnn2-c2cc(NC3CCCC3)c(C(=O)N[C@H]3CC[C@H](CCN4CCN(c5ccc6c(c5)C(=O)N(C5CCC(=O)NC5=O)C6=O)CC4)CC3)cn2)c1 (some centres unmarked) | 9.2%
C[C@H]1CN(c2ccc3c(c2)C(=O)N(C2CCC(=O)NC2=O)C3=O)C[C@H](C)N1CC1CCC(NC(=O)c2cnc(-n3ncc4cc(C#N)cnc43)cc2NC2CCCC2)CC1 (some centres unmarked) | 20.7%
